Listed next: entries and their corresponding inhibition.
biological target: Serine/threonine-protein kinase DCLK2 (Homo sapiens); details: at 0.1 µM;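 also: reported value is the mean percent inhibition of DCAMKL2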
Report the figure in % without appending any unit label.

Recorded results for 5 molecules are shown here.
COc1ccc2cc(-c3c(-c4ccncc4)nc(-c4ccc([S+](C)[O-])cc4)n3C)ccc2c1 (centres undefined) : 0.5
CCn1c(-c2nonc2N)nc2cncc(C(=O)N3CC[C@H](N)C3)c21 : 0.17
CC1=C(C(=O)Nc2ccc3[nH]ncc3c2)C(c2ccc3ccccc3c2)CC(=O)N1 (centres undefined) : 0.76
CCCN1CCC=C(c2ccc(Nc3nc(Nc4ccccc4C(N)=O)c4cc[nH]c4n3)c(C)c2)C1 : -0.54
CCCN1CCC(Oc2cc(Nc3nc(Nc4cccc(F)c4C(N)=O)c4cc[nH]c4n3)c(OC)cc2Cl)CC1 : -2.33

# input Identify the reported inhibition for the following entry. CS(=O)(=O)CCNCc1ccc(-c2ccc3ncnc(Nc4ccc(OCc5cccc(F)c5)c(C(F)(F)F)c4)c3c2)o1
# output 3.73

# input Identify the reported inhibition for the following entry. COC(=O)Nc1nc2cc(Oc3cccc(NC(=O)Nc4cc(C(F)(F)F)ccc4F)c3)ccc2[nH]1
# output 5.45

# input Identify the reported inhibition for the following entry. c1cnn2ncc(-c3ccnc(Nc4ccc5c(c4)OCCO5)n3)c2c1
# output 1.81

# input Identify the reported inhibition for the following entry. CCN1CCC(CC(=O)Nc2n[nH]c3nc(-c4cccs4)c(Br)cc23)CC1
# output 0.63

* * *

target: Serine/threonine-protein kinase MARK1 (Homo sapiens); conditions: at 1 µM;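 also: reported values are mean percent inhibition of MARK1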
test.readout: inhibition

Recorded results for 10 compounds are shown here.
COc1cc2ncn(-c3cc(O[C@H](C)c4ccccc4Cl)c(C(N)=O)s3)c2cc1OC : 31.9%
CC(=O)Nc1cccc(C#Cc2cncnc2Nc2ccc(OCc3cccc(F)c3)c(Cl)c2)n1 : 1.12%
CCn1c(-c2nonc2N)nc2cnc(Oc3cccc(NC(=O)c4ccc(OCCN5CCOCC5)cc4)c3)cc21 : 13.3%
O=C(Nc1n[nH]c2nc(-c3ccco3)c(Br)cc12)C1CC1 : 2.7%
c1cnn2ncc(-c3ccnc(Nc4ccc5c(c4)OCCO5)n3)c2c1 : 24.3%
CS(=O)(=O)CCN(CC#N)Cc1ccc(-c2ccc3ncnc(Nc4ccc(OCc5cccc(F)c5)c(Cl)c4)c3c2)o1 : -0.29%
Nc1ncnc2occ(-c3ccc(NC(=O)Nc4cc(C(F)(F)F)cc(C(F)(F)F)c4)cc3)c12 : -0.19%
COc1cccc(-n2ncc3c(N/N=C/c4cccc(F)c4)ncnc32)c1 : 6.35%
COC(=O)Nc1nc2cc(Oc3ccc(NC(=O)Nc4cccc(C(=O)O)c4)cc3)ccc2[nH]1 : 3.08%
COc1cc2ncn(-c3cc(OCc4ccccc4Cl)c(C(N)=O)s3)c2cc1OC : 9.28%

# input Identify the reported inhibition for the following entry. CC1=C(C(=O)Nc2ccc3[nH]ncc3c2)C(c2ccc3ccccc3c2)CC(=O)N1 (stereo not drawn)
# output 3.48%

# input Identify the reported inhibition for the following entry. COc1ccc2cc(-c3c(-c4ccncc4)nc(-c4ccc([S+](C)[O-])cc4)n3C)ccc2c1 (stereo not drawn)
# output 3.73%

# input Identify the reported inhibition for the following entry. [O-][S+]1CCN(Cc2ccc(-c3ccc4ncnc(Nc5ccc(OCc6ccccc6)c(F)c5)c4c3)o2)CC1
# output 2.55%

# input Identify the reported inhibition for the following entry. Fc1cccc(COc2ccc(Nc3ncnc4cc(-c5ccc[nH]5)sc34)cc2Cl)c1
# output 2.14%

# input Identify the reported inhibition for the following entry. COC(=O)Nc1nc2cc(Oc3cccc(NC(=O)Nc4cc(C(F)(F)F)ccc4F)c3)ccc2[nH]1
# output 1.49%

# input Identify the reported inhibition for the following entry. Nc1nc(-c2ccccn2)c(-c2ccc3ncccc3n2)s1
# output 6.18%

# input Identify the reported inhibition for the following entry. O=C1Nc2ccc(C(=O)c3ccco3)cc2C1=Cc1cc(Cl)c(O)c(Cl)c1
# output 14.2%

# input Identify the reported inhibition for the following entry. NS(=O)(=O)c1cccc(-c2ccc3c(NC(=O)C4CC4)n[nH]c3c2)c1
# output 4.41%

meta.source: ChEMBL document CHEMBL1961873
